experiment: Acute toxicity in zebrafish embryo assessed as hatching rate at 20 to 160 uM measured after 48 hrs post fertilization relative to control; design: species or system Danio rerio; details: in vivo, dose 20-160 µM
parameter: Activity (%)
Field format: number, assumed %, no unit text.

The reported value for CCCCCCCCCCCC1=C(O)C(=O)C(Cc2cccc([N+](=O)[O-])c2)=C(O)C1=O in terms of Activity is 51.33

Quick note, Activity for CCCCCCCCCCCC1=C(O)C(=O)C(Cc2ccc(OC)cc2)=C(O)C1=O landed at 75.66

Data point: CCCCCCCCCCCC1=C(O)C(=O)C(Cc2ccccc2[N+](=O)[O-])=C(O)C1=O ; Activity = 51.33

Data point: CCCCCCCCCCCC1=C(O)C(=O)C=C(O)C1=O [EMBELIN] ; Activity = 75.66

---

For each entry below, report its survival at 96 h, 160 µM value.
assay: Acute toxicity in zebrafish embryo assessed as survival rate at 160 uM measured after 96 hrs post fertilization relative to control; parameters: species or system Danio rerio; conditions: in vivo
Your answer should be a plain number; it is taken to be in %.

CCCCCCCCCCCC1=C(O)C(=O)C=C(O)C1=O [EMBELIN] has a reported survival at 96 h, 160 µM of 70

Form: compound = CCCCCCCCCCCC1=C(O)C(=O)C(Cc2cccc(Oc3ccccc3)c2)=C(O)C1=O ; survival at 96 h, 160 µM = 70

Per the record, CCCCCCCCCCCC1=C(O)C(=O)C(Cc2cc(OC)c(OC)c(OC)c2)=C(O)C1=O has survival at 96 h, 160 µM of 70

---

experiment: Antioxidant activity assessed as ABTS radical scavenging activity after 6 mins by spectrophotometric analysis relative to control; type: functional; set-up: concentration or dose not given beside the values
parameter: Activity
Kindly report the value followed by its unit.

get_value(item= CCCCCCCCCCCC1=C(O)C(=O)C(Cc2ccc(C#N)cc2)=C(O)C1=O , readout=Activity) returns 52.1%

Record O=C1O[C@H]([C@@H](O)CO)C(O)=C1O . Reported Activity: 91.1%

Reported Activity for CCCCCCCCCCCC1=C(O)C(=O)C(Cc2c(OC)cc(OC)cc2OC)=C(O)C1=O was 80.2%

// CCCCCCCCCCCC1=C(O)C(=O)C(Cc2cccc(Oc3ccccc3)c2)=C(O)C1=O : Activity value = 80.2%

---

assay: Antioxidant activity assessed as ABTS radical scavenging activity after 6 mins by spectrophotometric analysis relative to control; format: functional; design: concentration or dose not given beside the values
parameter: Activity (%)
Give the value, in units of %, as a plain number.

So, CCCCCCCCCCCC1=C(O)C(=O)C(CC(C)C)=C(O)C1=O ? Its Activity was 80.2

# Activity of CCCCCCCCCCCC1=C(O)C(=O)C(CC)=C(O)C1=O = 80.2

Reported Activity for CCCCCCCCCCCC1=C(O)C(=O)C(Cc2ccccc2F)=C(O)C1=O was 52.1

So for CCCCCCCCCCCC1=C(O)C(=O)C(Cc2ccc(F)cc2)=C(O)C1=O , the logged Activity turned out to be 52.1

Activity in this record for CCCCCCCCCCCC1=C(O)C(=O)C(Cc2ccc(Cl)cc2)=C(O)C1=O : 52.1

# Activity (compound: CCCCCCCCCCCC1=C(O)C(=O)C(Cc2ccc([N+](=O)[O-])cc2)=C(O)C1=O ) is 52.1

Consider CCCCCCCCCCCC1=C(O)C(=O)C(Cc2ccccc2Cl)=C(O)C1=O . Its measured Activity is 52.1

Noted for CCCCCCCCCCCC1=C(O)C(=O)C(Cc2c(Cl)cccc2Cl)=C(O)C1=O : its Activity reads 52.1

Entry C#Cc1ccc(CC2=C(O)C(=O)C(CCCCCCCCCCC)=C(O)C2=O)cc1 , Activity reported as 52.1

Per the records, this compound ( CCCCCCCCCCCC1=C(O)C(=O)C(Cc2ccc(Br)cc2)=C(O)C1=O ) has Activity equal to 52.1

Recorded Activity (compound CCCCCCCCCCCC1=C(O)C(=O)C(Cc2cccc([N+](=O)[O-])c2)=C(O)C1=O ): 52.1

In plain terms, CCCCCCCCCCCC1=C(O)C(=O)C(Cc2ccc(O)cc2)=C(O)C1=O has a documented Activity of 75.1

Record CCCCCCCCCCCC1=C(O)C(=O)C(Cc2ccccc2O)=C(O)C1=O . Reported Activity: 75.1

GET /value?item= CCCCCCCCCCCC1=C(O)C(=O)C(Cc2ccc(OC)cc2)=C(O)C1=O &field=Activity returns 80.2

C#Cc1ccccc1CC1=C(O)C(=O)C(CCCCCCCCCCC)=C(O)C1=O yielded Activity of 52.1

# Activity of CCCCCCCCCCCC1=C(O)C(=O)C(CCCl)=C(O)C1=O = 52.1

GET /value?item= CCCCCCCCCCCC1=C(O)C(=O)C(Cc2ccccc2[N+](=O)[O-])=C(O)C1=O &field=Activity returns 52.1

Entry source: ChEMBL document CHEMBL5376016
